- Assay target: rat SVCT1 (Rattus norvegicus)
- Construct: expressed in transfected cells; host or cells: Xenopus laevis oocytes injected with cRNA
- Sequence (Q9WTW7 whole entry): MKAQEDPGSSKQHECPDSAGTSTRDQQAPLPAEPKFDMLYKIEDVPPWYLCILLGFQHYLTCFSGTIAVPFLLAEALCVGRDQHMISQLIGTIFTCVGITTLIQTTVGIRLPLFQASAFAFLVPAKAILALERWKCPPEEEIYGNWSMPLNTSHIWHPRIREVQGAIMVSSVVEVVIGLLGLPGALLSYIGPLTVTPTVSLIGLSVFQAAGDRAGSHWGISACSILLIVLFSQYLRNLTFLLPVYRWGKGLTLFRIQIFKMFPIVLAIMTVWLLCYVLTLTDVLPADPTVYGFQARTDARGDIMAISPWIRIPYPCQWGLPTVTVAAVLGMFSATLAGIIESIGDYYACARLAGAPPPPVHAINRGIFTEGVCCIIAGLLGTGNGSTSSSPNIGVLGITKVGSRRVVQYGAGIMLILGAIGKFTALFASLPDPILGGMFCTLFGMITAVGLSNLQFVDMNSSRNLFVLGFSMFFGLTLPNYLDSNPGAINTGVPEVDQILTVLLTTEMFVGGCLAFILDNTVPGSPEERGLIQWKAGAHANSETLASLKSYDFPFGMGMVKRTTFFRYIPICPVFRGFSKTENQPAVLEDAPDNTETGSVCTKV
- Experiment summary: L-[14C]ascorbic acid radiotracer uptake in Xenopus oocytes expressing rat SVCT1
- Type: cell-based
Quantity: inhibition of SVCT1-mediated L-[14C]ascorbic acid uptake (in words)

1) O=c1[nH]c(=O)c2[nH]cnc2[nH]1 [xanthine]; modest inhibition
2) O=C(CCc1ccc(O)cc1)c1c(O)cc(O)cc1O[C@@H]1O[C@H](CO)[C@@H](O)[C@H](O)[C@H]1O [phlorizin]; modest inhibition
3) CC(=O)Oc1ccccc1C(=O)O [aspirin, acetyl-salicylic acid]; modest inhibition

###

- Assay target: rat SVCT1 (Rattus norvegicus)
- Construct: expressed in transfected cells; host or cells: Xenopus laevis oocytes injected with cRNA
- Experiment summary: Two-microelectrode voltage-clamp of Xenopus oocytes expressing rat SVCT1
- Type: cell-based
- Conditions: uniport mode, absence of L-ascorbic acid; read-out: apparent Ki, inhibition of the Na^+ leak current
pKi: −log10 of the molar value.
Quantity: pKi

If you can, please state the reported pKi value of "O=C(CCc1ccc(O)cc1)c1c(O)cc(O)cc1O" .
~4.00
